FYI, the data here is from ChEMBL document CHEMBL1156598.

Target: Steroid 17-alpha-hydroxylase/17,20 lyase (Homo sapiens, UniProt P05093)
Sequence (P05093 whole entry): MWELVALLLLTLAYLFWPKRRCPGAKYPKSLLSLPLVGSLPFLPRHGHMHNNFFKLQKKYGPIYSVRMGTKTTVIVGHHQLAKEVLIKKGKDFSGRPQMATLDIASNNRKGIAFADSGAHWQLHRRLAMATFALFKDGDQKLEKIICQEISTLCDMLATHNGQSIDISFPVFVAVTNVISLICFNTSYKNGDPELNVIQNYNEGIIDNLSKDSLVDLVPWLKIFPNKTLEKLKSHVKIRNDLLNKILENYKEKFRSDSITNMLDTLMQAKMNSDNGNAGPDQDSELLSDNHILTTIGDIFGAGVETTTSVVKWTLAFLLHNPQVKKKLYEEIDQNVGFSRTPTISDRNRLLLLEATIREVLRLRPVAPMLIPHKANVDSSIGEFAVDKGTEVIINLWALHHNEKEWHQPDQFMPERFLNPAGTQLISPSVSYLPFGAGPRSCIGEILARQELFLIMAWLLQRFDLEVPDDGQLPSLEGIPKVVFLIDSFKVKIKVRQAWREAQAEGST
Experiment: Inhibition of human recombinant CYP17 expressed in Escherichia coli coexpressing NADPH-P450 reductase
assayMetric: IC50

Exam item: Item under review: Oc1ccc(-c2ccc3c(c2)CCCC3c2ccncc2)cc1F (stereo unspecified) . Reported IC50?
Marked response: 64 nM

Exam item: I am curious: what IC50 value has been reported for Fc1ccc(-c2ccc3c(c2)CCC3c2cccnc2)cc1 (stereo unspecified) ?
Marked response: > 20000 nM

Exam item: Look up IC50: COc1ccc(-c2ccc3c(c2)CCC3(O)c2ccncc2)cc1F (stereo unspecified)
Marked response: > 10000 nM

Exam item: Would you mind telling me what IC50 value was observed for COc1ccc(-c2ccc3c(c2)CCCC3(O)c2ccncc2)cc1F (stereo unspecified) ?
Marked response: > 5000 nM

Exam item: Consider the molecule shown here: Fc1ccc(-c2ccc3c(c2)CCC=C3c2ccncc2)cc1F What is its recorded IC50?
Marked response: > 5000 nM

Exam item: Requested field: IC50. Item: Fc1ccc(-c2ccc3c(c2)CCCC3c2ccncc2)cc1 (stereo unspecified)
Marked response: 163 nM
